Reference source for all entries: patent US6221914A

Reported values of Ki for individual entries
molecular target: Human plasma factor Xa (Homo sapiens); experiment: Ki determination, human plasma factor Xa (N-Benzoyl-Ile-Glu-Gly-Arg-pNA); conditions: 50 mM Tris-HCl, pH 7.8, 200 mM NaCl, 0.05% BSA; read-out: Experimentally Determined Ki, Factor Xa
Sequence (P00742 235-488 limits assumed): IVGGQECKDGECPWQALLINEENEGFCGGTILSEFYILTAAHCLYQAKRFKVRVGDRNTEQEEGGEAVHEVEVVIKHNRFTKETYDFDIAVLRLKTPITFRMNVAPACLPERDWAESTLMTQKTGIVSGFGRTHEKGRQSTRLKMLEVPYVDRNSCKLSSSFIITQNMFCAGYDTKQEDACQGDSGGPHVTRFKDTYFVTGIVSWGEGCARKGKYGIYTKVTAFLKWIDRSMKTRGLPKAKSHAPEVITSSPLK
Sequence (P00742 41-179 partner limits assumed): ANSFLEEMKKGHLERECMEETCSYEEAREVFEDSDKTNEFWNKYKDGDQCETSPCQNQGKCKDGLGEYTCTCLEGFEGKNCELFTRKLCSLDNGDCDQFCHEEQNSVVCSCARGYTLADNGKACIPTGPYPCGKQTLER

Smiles str | Unit descriptor | Measurement qualifier | Ki
N=C(N)c1ccc(C(=O)NCc2ccc(OCCCCOc3ccc(CNC(=O)c4ccc(C(=N)N)cc4)cc3)cc2)cc1 | µM | = | 17.7
N=C(N)c1ccc(C(=O)NCc2cccc(OCCCCCOc3cccc(CNC(=O)c4ccc(C(=N)N)cc4)c3)c2)cc1 | µM | > | 100
N=C(N)c1cccc(C(=O)NCc2cccc(OCCCCCOc3cccc(CNC(=O)c4cccc(C(=N)N)c4)c3)c2)c1 | µM | = | 1.9
N=C(N)c1ccc(C(=O)NCc2ccc(OCCCOc3ccc(CNC(=O)c4ccc(CN)cc4)cc3)cc2)cc1 | µM | = | 19
N=C(N)c1ccc(S(=O)(=O)NCc2ccc(OCCCCCOc3ccc(CNS(=O)(=O)c4ccc(C(=N)N)cc4)cc3)cc2)cc1 | µM | = | 47
N=C(N)c1ccc(S(=O)(=O)NCc2cccc(OCCCCCOc3cccc(CNS(=O)(=O)c4ccc(C(=N)N)cc4)c3)c2)cc1 | µM | = | 40
N=C(N)c1ccc(C(=O)NCc2ccc(OCCCCCOc3ccc(CNC(=O)c4ccc(C(=N)N)cc4)cc3)cc2)cc1 | µM | > | 100
N=C(N)c1ccc(S(=O)(=O)NCc2ccc(OCCCOc3ccc(CNS(=O)(=O)c4ccc(C(=N)N)cc4)cc3)cc2)cc1 | µM | > | 100

* * *

biological target: Human lung tryptase; assay: Ki determination, human lung tryptase (Tosyl-Gly-Pro-Arg-pNA substrate); conditions: 50 mM Tris-HCl pH 8.0, 37° C., 1 nM tryptase, 320 μM GPR-pNA; read-out: Experimentally Determined Ki, Tryptase
Reported values of Ki for individual entries

Smiles str | Test system | Ki [nM]
N=C(N)c1cccc(S(=O)(=O)NCc2ccc(COCc3ccc(CNS(=O)(=O)c4cccc(C(=N)N)c4)cc3)cc2)c1 | Human lung tryptase | 100
N=C(N)c1cccc(S(=O)(=O)NCc2ccc(OCCCOc3ccc(CNS(=O)(=O)c4cccc(C(=N)N)c4)cc3)cc2)c1 | Human lung tryptase | 20
N=C(N)c1ccc(S(=O)(=O)NCc2ccc(OCCCOc3ccc(CNS(=O)(=O)c4ccc(C(=N)N)cc4)cc3)cc2)cc1 | Human lung tryptase | 800
N=C(N)c1cccc(S(=O)(=O)NCc2ccc(OCCCCCCOc3ccc(CNS(=O)(=O)c4cccc(C(=N)N)c4)cc3)cc2)c1 | Human lung tryptase | 110
N=C(N)c1ccc2cc(C(=O)NCc3ccc(OCCOc4ccc(CNC(=O)c5ccc6cc(C(=N)N)ccc6c5)cc4)cc3)ccc2c1 | Human lung tryptase | 0.2
N=C(N)c1ccc2[nH]c(CC(=O)NCc3ccc(OCCCCOc4ccc(CNC(=O)Cc5nc6cc(C(=N)N)ccc6[nH]5)cc4)cc3)nc2c1 | Human lung tryptase | 8

* * *

biological target: Bovine pancreatic Trypsin (Bos taurus, UniProt P00760)
Sequence (P00760 24-246): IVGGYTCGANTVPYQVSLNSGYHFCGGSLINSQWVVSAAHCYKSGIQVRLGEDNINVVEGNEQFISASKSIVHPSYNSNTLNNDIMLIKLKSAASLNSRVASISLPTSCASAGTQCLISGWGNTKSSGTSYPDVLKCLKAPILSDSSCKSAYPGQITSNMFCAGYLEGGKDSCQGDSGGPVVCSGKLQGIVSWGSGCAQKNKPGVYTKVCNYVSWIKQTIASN
Reported values of Ki for individual entries
Measured property: Ki (nM)

Smiles str | Measured property | Recorded result
N=C(N)c1ccc(C(=O)NCc2ccc(OCCCCCOc3ccc(CNC(=O)c4ccc(C(=N)N)cc4)cc3)cc2)cc1 | Ki | 910
N=C(N)c1cccc(C(=O)NCc2cccc(OCCCCCOc3cccc(CNC(=O)c4cccc(C(=N)N)c4)c3)c2)c1 | Ki | 1400
N=C(N)c1cccc(C(=O)NCc2ccc(OCCOc3ccc(CNC(=O)c4cccc(C(=N)N)c4)cc3)cc2)c1 | Ki | 2200
N=C(N)c1cccc(S(=O)(=O)NCc2ccc(OCCCCCCOc3ccc(CNS(=O)(=O)c4cccc(C(=N)N)c4)cc3)cc2)c1 | Ki | 3600
N=C(N)c1ccc(C(=O)NCc2ccc(OCCCOc3ccc(CNC(=O)c4cccc(C(=N)N)c4)cc3)cc2)cc1 | Ki | 1100
